Source: ChEMBL document CHEMBL1138736

# EXPERIMENT_DESCRIPTION: Inhibition of recombinant p56 Lck tyrosine kinase expressed in insect cells
Reported IC50 values are given for each entry in this list.
VALUE_TYPE: IC50 (nM)

INSERT INTO measurements (input_smiles, numeric_result) VALUES
  ('Cc1cccc(Cl)c1Nc1nc2ccc(-n3ccnc3)nc2n2cncc12', 5),
  ('Cc1cccc(Cl)c1Nc1nc2ccc(N3CCOCC3)nc2n2cncc12', 1),
  ('Cc1cccc(Cl)c1Nc1nc2ccc(N3CC[C@@H](O)C3)nc2n2cncc12', 8),
  ('Cc1cccc(Cl)c1Nc1nc2ccc(N3C[C@H](O)[C@@H](O)C3)nc2n2cncc12', 13),
  ('Cc1cccc(Cl)c1Nc1nc2ccc(N(CCO)CCO)nc2n2cncc12', 4),
  ('Cc1cccc(Cl)c1Nc1nc2ccc(N(C)C)nc2n2cncc12', 1),
  ('Cc1cccc(Cl)c1Nc1nc2ccc(N3CCN(CCO)CC3)nc2n2cncc12', 9),
  ('Cc1cccc(Cl)c1Nc1nc2cccnc2n2cncc12', 30),
  ('Cc1cccc(Cl)c1Nc1nc2ccc(N3CCCCC3)nc2n2cncc12', 7),
  ('Cc1cccc(Cl)c1Nc1nc2ccc(N3CCCNCC3)nc2n2cncc12', 6),
  ('Cc1cccc(C)c1Nc1nc2ncccc2n2cncc12', 150);

----------
# ASSAY_SYSTEM: UniProt:P43405
pIC50: −log10 of the molar value.
VALUE_TYPE: pIC50

INSERT INTO measurements (input_smiles, result) VALUES
  ('Cc1cccc(Cl)c1Nc1nc2ccc(N3CCN[C@@H](C)C3)nc2n2cncc12', '< 5.00');

----------
# ASSAY_SYSTEM: Tyrosine-protein kinase Yes (Homo sapiens)
# Sequence (P07947 whole entry): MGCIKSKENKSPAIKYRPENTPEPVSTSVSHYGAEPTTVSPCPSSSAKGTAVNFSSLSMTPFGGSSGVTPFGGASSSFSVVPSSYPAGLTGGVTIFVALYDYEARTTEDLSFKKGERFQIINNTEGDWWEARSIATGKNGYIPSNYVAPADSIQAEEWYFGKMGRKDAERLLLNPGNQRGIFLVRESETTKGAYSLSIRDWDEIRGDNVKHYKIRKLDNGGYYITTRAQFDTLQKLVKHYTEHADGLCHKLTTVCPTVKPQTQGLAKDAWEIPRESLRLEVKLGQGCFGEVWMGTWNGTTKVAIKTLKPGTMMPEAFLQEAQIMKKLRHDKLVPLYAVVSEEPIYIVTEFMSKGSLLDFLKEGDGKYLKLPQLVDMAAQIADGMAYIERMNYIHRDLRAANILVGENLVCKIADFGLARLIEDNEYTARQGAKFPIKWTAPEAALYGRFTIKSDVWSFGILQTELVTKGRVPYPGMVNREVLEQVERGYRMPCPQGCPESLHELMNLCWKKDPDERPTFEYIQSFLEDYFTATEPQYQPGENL
VALUE_TYPE: IC50 (nM)

INSERT INTO measurements (input_smiles, numeric_result) VALUES
  ('Cc1cccc(Cl)c1Nc1nc2ccc(N3CCN[C@@H](C)C3)nc2n2cncc12', 4.7);

----------
# ASSAY_SYSTEM: Tyrosine-protein kinase Fgr (Homo sapiens, UniProt P09769)
# Sequence (P09769 whole entry): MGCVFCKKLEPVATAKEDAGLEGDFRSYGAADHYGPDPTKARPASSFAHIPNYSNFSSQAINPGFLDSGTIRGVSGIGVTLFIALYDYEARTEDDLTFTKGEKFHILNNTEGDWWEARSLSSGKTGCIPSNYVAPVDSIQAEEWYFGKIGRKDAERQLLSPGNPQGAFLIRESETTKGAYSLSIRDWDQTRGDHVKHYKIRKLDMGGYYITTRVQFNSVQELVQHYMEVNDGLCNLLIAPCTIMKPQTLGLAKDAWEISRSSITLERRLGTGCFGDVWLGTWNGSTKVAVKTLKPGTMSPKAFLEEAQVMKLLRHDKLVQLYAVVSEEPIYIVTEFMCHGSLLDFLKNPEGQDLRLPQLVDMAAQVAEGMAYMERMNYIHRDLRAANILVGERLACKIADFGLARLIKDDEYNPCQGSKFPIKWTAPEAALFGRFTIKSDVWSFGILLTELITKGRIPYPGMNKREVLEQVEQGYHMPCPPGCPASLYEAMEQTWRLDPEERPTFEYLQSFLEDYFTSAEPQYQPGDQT
pIC50: −log10 of the molar value.
VALUE_TYPE: pIC50

INSERT INTO measurements (input_smiles, numeric_result) VALUES
  ('Cc1cccc(Cl)c1Nc1nc2ccc(N3CCN[C@@H](C)C3)nc2n2cncc12', 8.55);

----------
# ASSAY_SYSTEM: Inhibitor of nuclear factor kappa-B kinase subunit beta (Homo sapiens, UniProt O14920)
# Sequence (O14920 whole entry): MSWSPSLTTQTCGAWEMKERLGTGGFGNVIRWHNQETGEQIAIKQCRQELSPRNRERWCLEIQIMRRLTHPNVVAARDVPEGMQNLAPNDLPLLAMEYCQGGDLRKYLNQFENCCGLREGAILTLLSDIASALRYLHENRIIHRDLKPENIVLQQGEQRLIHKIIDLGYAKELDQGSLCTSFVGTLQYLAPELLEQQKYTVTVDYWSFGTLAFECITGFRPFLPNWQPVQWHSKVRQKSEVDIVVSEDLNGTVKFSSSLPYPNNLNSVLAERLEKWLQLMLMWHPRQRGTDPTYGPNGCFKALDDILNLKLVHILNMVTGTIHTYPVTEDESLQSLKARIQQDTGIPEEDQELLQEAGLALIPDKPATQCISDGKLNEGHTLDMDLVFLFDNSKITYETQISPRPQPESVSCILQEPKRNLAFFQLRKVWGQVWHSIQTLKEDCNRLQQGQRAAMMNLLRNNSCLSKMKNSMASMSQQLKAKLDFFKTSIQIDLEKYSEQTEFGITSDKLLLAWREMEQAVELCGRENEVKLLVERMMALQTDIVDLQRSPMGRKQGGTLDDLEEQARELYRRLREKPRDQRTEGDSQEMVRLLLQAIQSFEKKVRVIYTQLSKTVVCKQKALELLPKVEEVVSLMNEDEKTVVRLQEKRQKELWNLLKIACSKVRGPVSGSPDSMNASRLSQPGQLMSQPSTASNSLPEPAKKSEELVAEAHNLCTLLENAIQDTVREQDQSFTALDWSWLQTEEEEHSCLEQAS
# EXPERIMENT_DESCRIPTION: Inhibition of I-kappa-B-kinase beta
pIC50: −log10 of the molar value.
VALUE_TYPE: pIC50

INSERT INTO assay_data (input_smiles, result) VALUES
  ('Cc1cccc(Cl)c1Nc1nc2ccc(N3CCN[C@@H](C)C3)nc2n2cncc12', '< 5.00');

----------
# EXPERIMENT_DESCRIPTION: Inhibition of recombinant p56 Lck tyrosine kinase expressed in insect cells
pIC50: −log10 of the molar value.
VALUE_TYPE: pIC50

INSERT INTO assay_data (input_smiles, numeric_result) VALUES
  ('Cc1cccc(Cl)c1Nc1nc2ccc(N(C)C[C@@H](O)CO)nc2n2cncc12', 8.15),
  ('Cc1cccc(C)c1Nc1nc2ccc(N3CCNCC3)nc2n2cncc12', 9.00),
  ('Cc1cccc(Cl)c1Nc1nc2ccccc2n2cncc12', 8.05);

----------
# EXPERIMENT_DESCRIPTION: Inhibition of Protein kinase A
VALUE_TYPE: IC50

INSERT INTO results (input_smiles, result) VALUES
  ('Cc1cccc(Cl)c1Nc1nc2ccc(N3CCN[C@@H](C)C3)nc2n2cncc12', '> 10 µM');

----------
# EXPERIMENT_DESCRIPTION: Inhibition of Blk kinase
VALUE_TYPE: IC50

INSERT INTO measurements (input_smiles, result) VALUES
  ('Cc1cccc(Cl)c1Nc1nc2ccc(N3CCN[C@@H](C)C3)nc2n2cncc12', '27 nM');

----------
# EXPERIMENT_DESCRIPTION: Inhibition of p56 Lck tyrosine kinase
pIC50: −log10 of the molar value.
VALUE_TYPE: pIC50

INSERT INTO assay_data (input_smiles, numeric_result) VALUES
  ('Cc1cccc(Cl)c1Nc1nc2ccc(N3CCN[C@@H](C)C3)nc2n2cncc12', 8.40);

----------
# EXPERIMENT_DESCRIPTION: Inhibition of recombinant p56 Lck tyrosine kinase expressed in insect cells
pIC50: −log10 of the molar value.
Listing: pIC50 of selected compounds
VALUE_TYPE: pIC50

INSERT INTO assay_data (compound, reading_qualifier, numeric_result) VALUES
  ('Cc1cccc(Cl)c1NC1=NC2N=CN(C)C2n2c1cnc2C (stereo not given)', '<', 6.11),
  ('Cc1cccc(Cl)c1Nc1nc2ccc(N3CCN[C@@H](CO)C3)nc2n2cncc12', '=', 8.30),
  ('Cc1cccc(Cl)c1Nc1nc2ccc(N3CCN(C)CC3)nc2n2cncc12', '=', 9.00),
  ('Cc1cccc(Cl)c1Nc1nc2ccc(N3CC[C@H](N)C3)nc2n2cncc12', '=', 8.22),
  ('Cc1cccc(Cl)c1Nc1nc2ccc(N(C)CCN(C)C)nc2n2cncc12', '=', 7.15);

----------
# ASSAY_SYSTEM: Tyrosine-protein kinase Lyn (Homo sapiens, UniProt P07948)
# Sequence (P07948 whole entry): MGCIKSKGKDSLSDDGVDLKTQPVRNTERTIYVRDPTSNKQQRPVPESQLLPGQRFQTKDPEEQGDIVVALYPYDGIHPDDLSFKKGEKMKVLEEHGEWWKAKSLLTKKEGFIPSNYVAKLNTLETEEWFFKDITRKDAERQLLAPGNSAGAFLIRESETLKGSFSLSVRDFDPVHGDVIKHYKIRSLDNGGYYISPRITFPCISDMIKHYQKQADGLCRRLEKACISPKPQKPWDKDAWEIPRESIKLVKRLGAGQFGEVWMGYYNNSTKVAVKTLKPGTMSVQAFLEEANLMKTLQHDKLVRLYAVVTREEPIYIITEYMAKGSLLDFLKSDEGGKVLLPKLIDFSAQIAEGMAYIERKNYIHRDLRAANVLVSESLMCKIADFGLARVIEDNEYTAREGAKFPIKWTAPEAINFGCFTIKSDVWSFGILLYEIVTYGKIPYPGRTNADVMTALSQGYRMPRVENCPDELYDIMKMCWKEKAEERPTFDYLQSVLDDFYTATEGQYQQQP
VALUE_TYPE: IC50 (nM)

INSERT INTO measurements (input_smiles, value_type, numeric_result) VALUES
  ('Cc1cccc(Cl)c1Nc1nc2ccc(N3CCN[C@@H](C)C3)nc2n2cncc12', 'IC50', 0.5);

----------
# EXPERIMENT_DESCRIPTION: Inhibition of recombinant p56 Lck tyrosine kinase expressed in insect cells
pIC50: −log10 of the molar value.
Output criterion met for pIC50 not less than 8; output criterion not met otherwise.

INSERT INTO measurements (molecule, class_label) VALUES
  ('CCN(CC)c1ccc2nc(Nc3c(C)cccc3Cl)c3cncn3c2n1', 'criterion met'),
  ('Cc1cccc(Cl)c1Nc1nc2ncccc2n2cncc12', 'criterion not met'),
  ('Cc1cccc(Cl)c1Nc1nc2ccc(N3C[C@@H](O)[C@H](O)C3)nc2n2cncc12', 'criterion met'),
  ('Cc1cccc(Cl)c1Nc1nc2ccc(Cl)nc2n2cncc12', 'criterion not met'),
  ('Cc1cccc(Cl)c1Nc1nc2cc(N3CCNCC3)ncc2n2cncc12', 'criterion not met'),
  ('COc1ncc2c(n1)nc(Nc1c(C)cccc1Cl)c1cncn12', 'criterion not met'),
  ('CC1=NN(C)C2C1N=C(Nc1c(C)cccc1Cl)c1cnc(C)n12 (configuration not stated)', 'criterion not met'),
  ('Cc1cccc(Cl)c1Nc1nc2ccncc2n2cncc12', 'criterion not met'),
  ('Cc1cccc(Cl)c1Nc1nc2ccc(N3CCN(CCN(C)C)CC3)nc2n2cncc12', 'criterion met'),
  ('Cc1cccc(Cl)c1Nc1nc2cc(N(C)CCN(C)C)ncc2n2cncc12', 'criterion not met'),
  ('Cc1cccc(Cl)c1Nc1nc2ccc(N3CCN[C@H](CO)C3)nc2n2cncc12', 'criterion met'),
  ('Cc1cccc(Cl)c1Nc1nc2cc(N(C)CCN3CCOCC3)ncc2n2cncc12', 'criterion not met'),
  ('Cc1cccc(Cl)c1Nc1nc2cnccc2n2cncc12', 'criterion not met'),
  ('Cc1cccc(Cl)c1Nc1nc2ccc(N3CCN[C@H](C)C3)nc2n2cncc12', 'criterion met'),
  ('Cc1cccc(Cl)c1Nc1nc2ccc(NCCO)nc2n2cncc12', 'criterion met'),
  ('COc1ccc2nc(Nc3c(C)cccc3Cl)c3cncn3c2n1', 'criterion not met'),
  ('Cc1cccc(Cl)c1Nc1nc2ccc(N3C[C@@H](C)N[C@@H](C)C3)nc2n2cncc12', 'criterion met'),
  ('Cc1cccc(Cl)c1Nc1nc2cnc(N3C[C@@H](C)N[C@@H](C)C3)cc2n2cncc12', 'criterion not met'),
  ('Cc1cccc(Cl)c1Nc1nc2ccc(N(C)CCO)nc2n2cncc12', 'criterion met'),
  ('Cc1cccc(Cl)c1Nc1nc2ccc(N3CC[C@H](O)C3)nc2n2cncc12', 'criterion met');
